Tested On: T1, human chemokine (C-C motif) receptor 8 (CCR8) (human, UniProt P51685 1-355)
T1 construct: On human peripheral blood lymphocytes / PBMC (native) or on human CCR8 GFP-transfected Ba/F3 cells; also called hCCR8; human CCR8
T1 sequence (P51685 whole entry): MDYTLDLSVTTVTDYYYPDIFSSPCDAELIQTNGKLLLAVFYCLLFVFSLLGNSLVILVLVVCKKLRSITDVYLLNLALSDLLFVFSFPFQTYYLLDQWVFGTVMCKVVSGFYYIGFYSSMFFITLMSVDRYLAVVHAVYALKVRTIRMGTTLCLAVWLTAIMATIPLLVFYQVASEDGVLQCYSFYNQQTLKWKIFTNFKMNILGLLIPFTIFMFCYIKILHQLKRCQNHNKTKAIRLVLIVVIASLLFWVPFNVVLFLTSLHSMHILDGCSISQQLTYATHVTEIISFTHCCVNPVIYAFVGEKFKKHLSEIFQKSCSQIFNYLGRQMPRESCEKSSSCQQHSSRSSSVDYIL
Protocol Notes: flow cytometry blocking, PBMC CCR8+ CD4+ cells; competitor PE-AB14 (its MFI is read)
Readout Kind: % Blocking (%)
A number alone suffices; assume %.

Problem: Fill blank: measured % Blocking of the binder AB2 (antibody, V domains shown, Hybridoma monoclonal; also called antibody 2; clone 2) VH: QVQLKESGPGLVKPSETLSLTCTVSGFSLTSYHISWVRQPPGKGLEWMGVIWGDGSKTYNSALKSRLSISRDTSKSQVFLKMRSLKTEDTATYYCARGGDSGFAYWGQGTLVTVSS VL: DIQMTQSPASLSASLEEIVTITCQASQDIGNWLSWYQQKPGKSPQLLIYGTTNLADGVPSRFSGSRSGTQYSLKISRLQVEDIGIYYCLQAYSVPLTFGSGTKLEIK is ____.
Solution: 2.39
